The reported numbers originate from patent US20230414735A1.

- Test system: HLA Class I molecules
- Test Description: HLA class I binding stability assay (pMHC-I complex dissociation, 125I-labeled β2m, scintillation counts)
- Design: species or system human
- Cond: allele A02.01; 37° C.
Measured Metric: Stability (T1/2 (h))

Solved entries (count: 2):
QUERY: Query (compound): CC[C@H](C)[C@H](NC(=O)[C@H](Cc1ccc(O)cc1)NC(=O)[C@H](CC(C)C)NC(=O)[C@@H](N)CC(C)C)C(=O)N[C@H](C(=O)N[C@@H](C)C(=O)N[C@@H](Cc1ccccc1)C(=O)N[C@@H](Cc1ccccc1)C(=O)N[C@@H](CC(C)C)C(=O)O)[C@@H](C)O ; field requested: Stability (T1/2 (h))
RESULT: 17

QUERY: Recorded Stability (T1/2 (h)) of CC(C)C[C@H](NC(=O)[C@H](C)NC(=O)[C@@H](NC(=O)[C@H](CCCNC(=N)N)NC(=O)[C@H](CO)NC(=O)[C@H](CC(=O)O)NC(=O)[C@H](CO)NC(=O)[C@H](CC(C)C)NC(=O)[C@@H](N)CCCCN)[C@@H](C)O)C(=O)O , please.
RESULT: 2.8

A = CC(C)C[C@H](NC(=O)[C@H](C)N)C(=O)N[C@@H](CC(N)=O)C(=O)N[C@@H](CO)C(=O)N[C@@H](CCC(=O)O)C(=O)N[C@@H](C)C(=O)N[C@@H](CC(C)C)C(=O)N[C@@H](CO)C(=O)N[C@H](C(=O)N[C@H](C(=O)O)C(C)C)C(C)C
B = CC(C)C[C@H](NC(=O)[C@H](CO)NC(=O)[C@H](CS)NC(=O)[C@H](CCC(=O)O)NC(=O)[C@H](Cc1c[nH]c2ccccc12)NC(=O)[C@H](CC(C)C)NC(=O)[C@H](C)NC(=O)[C@H](CC(C)C)NC(=O)[C@H](CC(C)C)NC(=O)[C@@H](N)Cc1ccccc1)C(=O)O
QUERY: Form field 'greater Stability (T1/2 (h))' accepts A or B ; which applies? Could you answer with the label of the item you picked?
RESULT: B
(B: 10.8 h, A: 2.9 h)
